Data provenance: patent US4868114A

# Test system: rat hepatocytes
# METHOD_SUMMARY: Inhibitory effect of buthionine sulfoximine (BSO) on GSH elevation elicited by L-cysteine prodrugs in rat hepatocytes
# Assay type: cell-based
# MEASUREMENT_CONDITIONS: rat hepatocytes, BSO 0.2 mM, prodrug 1.0 mM; 240 min
MEASUREMENT_TYPE: [GSH] Rel. to Controls

Study these solved cases before continuing.
[[record]]
compound = "O=C(O)[C@@H]1CSC([C@H](O)[C@@H](O)[C@H](O)CO)N1 (some centres unmarked)"
study_target = "rat hepatocytes"
reported_measurement = 0.8

[[record]]
compound = "O=C(O)[C@@H]1CSC([C@H](O)[C@@H](O)[C@H](O)[C@H](O)CO)N1 (some centres unmarked)"
study_target = "rat hepatocytes"
reported_measurement = 0.7

[[record]]
compound = "O=C(O)[C@@H]1CSC([C@H](O)[C@@H](O)[C@@H](O)[C@H](O)CO)N1 (some centres unmarked)"
study_target = "rat hepatocytes"
reported_measurement = 0.7

[[record]]
compound = "O=C(O)[C@@H]1CSC([C@@H](O)[C@@H](O)[C@H](O)[C@H](O)CO)N1 (some centres unmarked)"
study_target = "rat hepatocytes"
reported_measurement = 0.5


Continue with the compound presented below.
What measured [GSH] Rel. to Controls is associated with O=C(O)[C@@H]1CSC([C@H](O)CO)N1 (some centres unmarked) on rat hepatocytes?
0.5
